Prostaglandin G/H synthase 2 (Homo sapiens) IC50, compiled from various sources.
assay metric: IC50

>>> result("Cc1ccccc1CNc1cc(C(F)(F)F)cc(-c2ccc(S(C)(=O)=O)cc2)n1")
"≤ 500 nM"
>>> result("Cc1cc(-c2cc(C(F)(F)F)nn2-c2ccc(S(N)(=O)=O)cc2)ccc1Cl")
"< 137 nM"
>>> result("Cc1cc(OCc2ccccc2)nc(-c2ccc(S(C)(=O)=O)cc2)c1")
"≤ 500 nM"
>>> result("Cc1cc(NCc2ccc(F)cc2)nc(-c2ccc(S(C)(=O)=O)cc2)c1")
"≤ 500 nM"
>>> result("CS(=O)(=O)c1ccc(-c2cc(C(F)(F)F)cc(Nc3ccc(Cl)nn3)n2)cc1")
"≤ 500 nM"
>>> result("CS(=O)(=O)c1ccc(-c2cc(CF)nc(NCc3ccccc3)n2)cc1")
"22 nM"
>>> result("CCc1cc(OCc2ccnn2C)nc(-c2ccc(S(C)(=O)=O)cc2)c1")
"≤ 500 nM"
>>> result("CN(Cc1ccccc1)c1cc(C(F)(F)F)cc(-c2ccc(S(C)(=O)=O)cc2)n1")
"≤ 500 nM"
>>> result("CCc1cc(NCc2[nH]cnc2C)nc(-c2ccc(S(C)(=O)=O)cc2)c1")
"≤ 500 nM"
>>> result("Cc1cc(NCc2cnn(CF)c2)nc(-c2ccc(S(C)(=O)=O)cc2)c1")
"≤ 500 nM"
>>> result("CCc1cc(NCc2cnn(CF)c2)nc(-c2ccc(S(C)(=O)=O)cc2)c1")
"≤ 500 nM"
>>> result("Cc1cc(NCc2ccccc2)nc(-c2ccc(S(C)(=O)=O)c(F)c2)c1")
"≤ 500 nM"
>>> result("Cc1cc(Oc2cccnc2)nc(-c2ccc(S(C)(=O)=O)cc2)c1")
"≤ 500 nM"
>>> result("CCc1cc(NCc2nc(C)cs2)nc(-c2ccc(S(C)(=O)=O)cc2)c1")
"≤ 500 nM"
>>> result("Cc1cc(NCc2cnn(C)c2)nc(-c2ccc(S(C)(=O)=O)cc2)c1")
"≤ 500 nM"
>>> result("COc1ccc(Nc2cc(C(F)(F)F)cc(-c3ccc(S(C)(=O)=O)cc3)n2)cc1")
"≤ 500 nM"
>>> result("Cc1cc(NCc2conc2C)nc(-c2ccc(S(C)(=O)=O)cc2)c1")
"≤ 500 nM"
>>> result("Cc1cc(OCc2ccc(C)nc2)nc(-c2ccc(S(C)(=O)=O)cc2)c1")
"≤ 500 nM"
>>> result("CS(=O)(=O)c1ccc(-c2cc(C(F)(F)F)cc(NCC3CCOCC3)n2)cc1")
"≤ 500 nM"
>>> result("CCc1cc(-c2ccc(S(C)(=O)=O)cc2)nc(OCc2ccc(C)nc2)c1C#N")
"≤ 500 nM"
>>> result("CCOc1ccc(CNc2cc(C)cc(-c3ccc(S(C)(=O)=O)cc3)n2)cc1")
"≤ 500 nM"
>>> result("CS(=O)(=O)c1ccc(-c2ccc3ccn(Cc4cccnc4)c3n2)cc1")
"≤ 500 nM"
>>> result("CCn1ncnc1CNc1cc(C)cc(-c2ccc(S(C)(=O)=O)cc2)n1")
"≤ 500 nM"
>>> result("CC(C)=CCCC(C)/C=C/c1ccc(O)cc1 (stereo not drawn)")
"72000 nM"
>>> result("CS(=O)(=O)c1ccc(-c2cc(C(F)(F)F)cc(NCc3ccccc3Cl)n2)cc1")
"≤ 500 nM"
>>> result("Cc1ccc(CNc2cc(C(F)(F)F)cc(-c3ccc(S(C)(=O)=O)cc3)n2)cc1")
"≤ 500 nM"
>>> result("Cc1cc(NCc2c[nH]nc2C)nc(-c2ccc(S(C)(=O)=O)cc2)c1")
"≤ 500 nM"
>>> result("CCCNc1nc(-c2ccc(S(C)(=O)=O)cc2)c(C)c(C(F)(F)F)n1")
"26700 nM"
>>> result("CCN(Cc1ccccc1)c1cc(C)cc(-c2ccc(S(C)(=O)=O)cc2)n1")
"≤ 500 nM"
>>> result("Cc1cc(NCc2nccn2C)nc(-c2ccc(S(C)(=O)=O)cc2)c1")
"≤ 500 nM"
>>> result("CS(=O)(=O)c1ccc(-c2cc(C(F)(F)F)cc(NC3CCCCC3)n2)cc1")
"≤ 500 nM"
>>> result("CSc1ccc(-c2c(-c3cccc(C)c3)nc3ncccn23)cc1Br")
"> 25000 nM"
>>> result("CC(C)(C)c1cc(NCc2ccccc2)nc(-c2ccc(S(C)(=O)=O)cc2)c1")
"≤ 500 nM"
>>> result("CCc1cc(Nc2ccc(C)nc2)nc(-c2ccc(S(C)(=O)=O)cc2)c1")
"≤ 500 nM"
>>> result("COc1ccc(-c2nc3ncccn3c2-c2ccc(SC(C)C)cc2)cc1")
"> 25000 nM"
>>> result("Cc1cc(-c2ccc(S(C)(=O)=O)cc2)nc(N(C)Cc2nccn2C)c1")
"≤ 500 nM"
